# test-protocol: Pharmacokinetics in Sprague Dawley rats
# Format: in vivo
# test-conditions: male, rat, in vivo, po, 100 mg/kg

{"compound-string": "N#C[C@@]1(c2ccc3c(N)ncnn23)O[C@H](CO)[C@@H](O)[C@H]1O", "units-symbol": "h", "Tmax": 2.3}

###

# test-protocol: Pharmacokinetics in Cynomolgus monkeys
# Assay type: in vivo
# test-conditions: male, cynomolgus monkey, plasma; Monkey, PO 5 mg/kg

{"compound-string": "N#C[C@@]1(c2ccc3c(N)ncnn23)O[C@H](CO)[C@@H](O)[C@H]1O", "half-life, h": 7.7}

###

# test-protocol: physchem
# Assay type: physicochemical
# test-conditions: pH 7.4, aqueous buffer, kinetic from dmso stock

{"compound-string": "N#C[C@@]1(c2ccc3c(N)ncnn23)O[C@H](CO)[C@@H](O)[C@H]1O", "units-symbol": "µg/mL", "solubility kinetic": 42}
